- Experiment Description: in vitro
- Details: human, microsomes
Measured Property: half-life at 1 µM (min)

1) O=C1c2c(O)cc(O)cc2O[C@H](c2cc(O)c(O)c(O)c2)[C@H]1O [DHM, dihydromyricetin] = 203

* * *

- Experiment Description: Kinetic solubility in simulated intestinal fluid (SIF)
- Details: pH 6.8
Measured Property: solubility kinetic at 2 h

1) O=C(O)Cc1ccccc1Nc1c(Cl)cccc1Cl [diclofenac] = ~300 µM

* * *

- Experiment Description: physchem
- Details: water, thermodynamic from solid
Measured Property: solubility thermodynamic (µg/mL)

1) O=C1c2c(O)cc(O)cc2O[C@H](c2cc(O)c(O)c(O)c2)[C@H]1O [DHM, dihydromyricetin] = 650

* * *

- Experiment Description: in vitro
- Details: male, mouse, microsomes
Measured Property: half-life at 1 µM (h)

1. O=C1c2c(O)cc(O)cc2O[C@H](c2cc(O)c(O)c(O)c2)[C@H]1O [DHM, dihydromyricetin] = 1.57

Entry source: paper PMC11756387
